experiment: Toxicity in brine shrimp assessed as lethality; format: organism-based; conditions: artemia, in vivo
result.type: LC50 (µg/mL)
Please respond with the number in µg/mL and leave the unit unwritten.

Request: Fill in: LC50 of CCCCC[C@H]1CCCCCCCCCC(=O)O[C@H]2[C@H](O)[C@@H](CO)O[C@@H](O[C@H]3[C@H](O1)O[C@H](C)[C@H](O)[C@@H]3O)[C@@H]2O[C@@H]1O[C@@H](C)[C@H](OC(=O)[C@@H](C)CC)[C@@H](O[C@@H]2O[C@@H](C)[C@H](O)[C@@H](O)[C@H]2O)[C@H]1OC(=O)[C@@H](C)CC [TRICOLORIN A] is ___
Result: 18.2

Measured values drawn from ChEMBL document CHEMBL1147355 for this set.
